Target: JAK3 enzyme (Homo sapiens, UniProt P52333)
Sequence (P52333 1-1124): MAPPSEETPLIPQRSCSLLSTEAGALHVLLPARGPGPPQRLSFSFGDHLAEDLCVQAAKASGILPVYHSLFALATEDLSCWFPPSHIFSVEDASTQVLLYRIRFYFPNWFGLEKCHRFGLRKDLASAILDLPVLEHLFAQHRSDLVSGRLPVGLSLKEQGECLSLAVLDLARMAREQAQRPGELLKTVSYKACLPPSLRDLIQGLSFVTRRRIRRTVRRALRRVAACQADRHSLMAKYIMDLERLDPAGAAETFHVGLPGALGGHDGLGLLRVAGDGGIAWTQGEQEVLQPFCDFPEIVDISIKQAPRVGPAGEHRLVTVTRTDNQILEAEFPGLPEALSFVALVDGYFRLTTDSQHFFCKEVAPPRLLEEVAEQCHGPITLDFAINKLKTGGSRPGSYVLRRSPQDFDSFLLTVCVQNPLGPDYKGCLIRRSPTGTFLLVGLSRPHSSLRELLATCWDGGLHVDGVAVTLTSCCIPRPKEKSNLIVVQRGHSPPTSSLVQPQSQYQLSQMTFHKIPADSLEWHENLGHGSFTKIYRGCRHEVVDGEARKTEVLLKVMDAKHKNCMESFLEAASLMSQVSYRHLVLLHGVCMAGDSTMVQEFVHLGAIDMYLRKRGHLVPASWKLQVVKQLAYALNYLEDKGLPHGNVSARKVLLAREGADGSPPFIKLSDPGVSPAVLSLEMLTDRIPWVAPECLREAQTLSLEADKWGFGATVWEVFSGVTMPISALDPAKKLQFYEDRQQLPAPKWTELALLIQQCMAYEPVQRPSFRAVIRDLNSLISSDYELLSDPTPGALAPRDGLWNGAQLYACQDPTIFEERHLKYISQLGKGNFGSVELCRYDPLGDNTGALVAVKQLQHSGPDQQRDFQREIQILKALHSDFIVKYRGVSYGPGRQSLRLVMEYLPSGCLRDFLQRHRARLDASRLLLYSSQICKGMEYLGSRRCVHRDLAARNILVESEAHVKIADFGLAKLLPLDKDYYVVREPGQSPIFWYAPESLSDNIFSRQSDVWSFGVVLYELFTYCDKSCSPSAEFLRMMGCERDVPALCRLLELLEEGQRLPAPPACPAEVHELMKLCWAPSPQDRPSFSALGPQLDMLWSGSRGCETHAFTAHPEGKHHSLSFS
Test: JAK Caliper Enzyme Assay at 4 μM ATP
Type: biochemical
pIC50: −log10 of the molar value.
PARAMETER: pIC50

COMPOUND: C=CC(=O)N1CCN(c2cnc3[nH]cc(C(=O)NC4CCC4)c3n2)CC1
MEASURED_NUMBER: 9.37

COMPOUND: C=CC(=O)N1CCN(c2cnc3[nH]cc(C(=O)N[C@@H](CC)COC)c3n2)CC1(C)C
MEASURED_NUMBER: 8.83

COMPOUND: C=CC(=O)N1CCC(Oc2cnc3[nH]cc([C@H](C)O)c3n2)CC1 (single isomer, unassigned)
MEASURED_NUMBER: 7.79

COMPOUND: C=CC(=O)N1C[C@H](Nc2cnc3[nH]cc(C(=O)NCC)c3n2)C[C@@H]1COC
MEASURED_NUMBER: 7.94

###

Biological target: JAK3 enzyme (Homo sapiens, UniProt P52333)
Experiment: JAK Caliper Enzyme Assay at 4 μM ATP
Type: biochemical
Procedure: Test article was solubilized in dimethyl sulfoxide (DMSO) to a stock concentration of 30 mM. An 11-point half log dilution series was created in DMSO with a top concentration of 600 μM. […] Test article and assay controls were added to a 384-well plate. […] Enzyme concentrations and incubation times were optimized for each new enzyme preps and were modified slightly over time to ensure 20%-30% phosphorylation. […]
Classes by IC50: label 0 (below 0.9 nM), label 1 (0.9 nM to below 6 nM), label 2 (6 nM or more)

MOLECULE: C=CC(=O)N1CCC(Oc2cnc3[nH]cc(-c4ncnn4C(C)C)c3n2)CC1 [Example 123]
QUALITATIVE_LABEL: label 2
//
MOLECULE: C=CC(=O)N1CCC(Oc2cnc3[nH]cc(C(=O)NC4CCCC(F)(F)C4)c3c2)CC1 (centres unmarked) [Example 339]
QUALITATIVE_LABEL: label 2
//
MOLECULE: C#CCNC(=O)c1c[nH]c2ncc(N3CCN(C(=O)C=C)C(C)(C)C3)nc12 [Example 83]
QUALITATIVE_LABEL: label 2
//
MOLECULE: C=CC(=O)N1CC[C@@H](COc2cnc3[nH]cc(C(=O)N[C@@H](C)COC)c3n2)C1 (single isomer, unassigned) [Example 12]
QUALITATIVE_LABEL: label 1
//
MOLECULE: C=CC(=O)N1CCCC(Nc2cnc3[nH]cc(C(=O)NCC)c3n2)C1 (racemic) [Example 34]
QUALITATIVE_LABEL: label 0
//
MOLECULE: C=CC(=O)N1CCN(c2cnc3[nH]cc(C(=O)N[C@@H]4COC[C@@H]4CC(C)C)c3n2)CC1(C)C [Example 142]
QUALITATIVE_LABEL: label 2
//
MOLECULE: C=CC(=O)N1CCN(c2cnc3[nH]cc(C(=O)N[C@@H](c4ccccc4)C(C)(C)O)c3n2)CC1(C)C [Example 162]
QUALITATIVE_LABEL: label 2
//
MOLECULE: C=CC(=O)N1CCC(Nc2cnc3[nH]cc(C(=O)NCc4nc5cc(F)ccc5o4)c3n2)CC1 [Example 177]
QUALITATIVE_LABEL: label 0
//
MOLECULE: C=CC(=O)N1CCN(c2cnc3[nH]cc(C(=O)NCC(F)(F)F)c3n2)C[C@@H]1CC(C)C [Example 311]
QUALITATIVE_LABEL: label 1
//
MOLECULE: C=CC(=O)N1CCN(c2cnc3[nH]cc(C(=O)NC[C@H](C)CC(F)(F)F)c3n2)CC1 [Example 336]
QUALITATIVE_LABEL: label 0
//
MOLECULE: C=CC(=O)N1CCC(Oc2cnc3[nH]cc(C(=O)NCC4(O)CCCC[C@@H]4F)c3n2)CC1 (mixture of isomers) [Example 224]
QUALITATIVE_LABEL: label 1
//
MOLECULE: C=CC(=O)N1CCN(c2cnc3[nH]cc(C(=O)NCCOC)c3n2)CC1(C)C [Example 265]
QUALITATIVE_LABEL: label 1
//
MOLECULE: C=CC(=O)N1CCN(c2cnc3[nH]cc(C(=O)N[C@@H]4COC[C@@H]4n4cc(F)cn4)c3n2)CC1(C)C [Example 159]
QUALITATIVE_LABEL: label 2
//
MOLECULE: C=CC(=O)N1CCN(c2cnc3[nH]cc(C(=O)N[C@@H]4COC[C@@H]4c4ccc(F)cc4)c3n2)CC1(C)C (stereo in doubt) [Example 143]
QUALITATIVE_LABEL: label 2
//
MOLECULE: C=CC(=O)N1CCC(Nc2cnc3[nH]cc(C(=O)NCC(C)CC(F)(F)F)c3n2)CC1C (racemic) [Example 310]
QUALITATIVE_LABEL: label 1
//
MOLECULE: C=CC(=O)N1CCC(Oc2cnc3[nH]cc(-c4n[nH]c(C(C)C)n4)c3n2)CC1 [Example 116]
QUALITATIVE_LABEL: label 2
//
MOLECULE: C=CC(=O)N1CC[C@@H](Nc2cnc3c(n2)c(C(=O)NCC)cn3C)C[C@H]1C (single isomer, unassigned) [Example 351]
QUALITATIVE_LABEL: label 1
//
MOLECULE: C=CC(=O)N1C[C@@H](CC#N)C[C@@H](Nc2ncnc3[nH]ccc23)C1 (single isomer, unassigned) [Example 106]
QUALITATIVE_LABEL: label 0
//
MOLECULE: C=CC(=O)N1CC[C@H](Nc2cnc3[nH]cc(C(=O)NCC)c3n2)C[C@H]1C (single isomer, unassigned) [Example 41]
QUALITATIVE_LABEL: label 0
//
MOLECULE: C=CC(=O)N1CC[C@H](Nc2cnc3[nH]cc(C(=O)NCC)c3n2)[C@@H](O)C1 (single isomer, unassigned) [Example 32]
QUALITATIVE_LABEL: label 0
//
MOLECULE: C=CC(=O)N1CCC(Oc2cnc3[nH]cc(C(=O)NCC4(O)CCC4)c3n2)CC1 [Example 203]
QUALITATIVE_LABEL: label 1
//
MOLECULE: C=CC(=O)N1CCC[C@@H](Oc2cnc3[nH]cc(C(=O)N[C@@H](C)COC)c3n2)C1 [Example 49]
QUALITATIVE_LABEL: label 2
//
MOLECULE: C=CC(=O)N1C[C@@H](Nc2ncnc3[nH]ccc23)CC[C@@H]1[C@@H](C)O (single isomer, unassigned) [Example 111]
QUALITATIVE_LABEL: label 0
//
MOLECULE: C=CC(=O)N1CCN(c2cnc3[nH]cc(C(=O)NC(COC)COC)c3n2)CC1(C)C (racemic) [Example 140]
QUALITATIVE_LABEL: label 1
//
MOLECULE: C=CC(=O)N1CCC(Nc2cnc3[nH]cc(C(=O)NCCCC(F)(F)F)c3n2)CC1C (racemic) [Example 282]
QUALITATIVE_LABEL: label 1
//
MOLECULE: C=CC(=O)N1CCC(Nc2cnc3[nH]cc(C(=O)NCc4cnn(-c5cccc(F)c5)c4)c3n2)CC1 [Example 192]
QUALITATIVE_LABEL: label 0
//
MOLECULE: C=CC(=O)N1CCC(C)(Nc2cnc3[nH]cc(C(=O)NCC(C)CC(F)(F)F)c3n2)CC1 (racemic) [Example 270]
QUALITATIVE_LABEL: label 0
//
MOLECULE: C=CC(=O)N1C[C@H](Nc2ncnc3[nH]ccc23)CC[C@@H]1CNC(C)=O (single isomer, unassigned) [Example 89]
QUALITATIVE_LABEL: label 2
